Reported normalized growth values follow for various molecules
Assay: chemical genetic growth profiling, strain panel (AID 1159580);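 further: tested at 20 µM; growth read once vehicle control cultures reached saturation at 30 °C; 1 = growth at the plate median or of vehicle wells; lower values mean less growth of the strain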
Details: S. cerevisiae deletion strains, growth OD, locus YIL066C, strain RNR3, active compounds read low
Out of some 5,500 compounds screened, about 2,000 (36%) were called active. About 18% were inconclusive and are not listed. The list shows a part of the results.

1. NC(N)=N/N=C/c1c(Cl)cccc1Cl :: 1.02 (inactive)
2. CC(C)(Oc1ccc(CCNC(=O)c2ccc(Cl)cc2)cc1)C(=O)O :: 1.02 (inactive)
3. CNCc1ccccc1 :: 0.992 (inactive)
4. NNC(=O)c1ccncc1 :: 1.02 (inactive)

Now examine the next entry.
Task: Bench note: what normalized growth did CC1=CCC2C3(C)C1=CC(=O)OC3CC1C(C)(C)CC(O)C(O)C12C (stereo not given) show?
Output: 1.05 (inactive)

###

Reported normalized growth values follow for various compounds
Assay: chemical genetic growth profiling, strain panel (AID 1159580);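 further: tested at 20 µM; growth read once vehicle control cultures reached saturation at 30 °C; 1 = growth at the plate median or of vehicle wells; lower values mean less growth of the strain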
Conditions: S. cerevisiae deletion strains, growth OD, locus YNL071W, strain lat1, active compounds read low
About 2,000 (36%) of roughly 5,500 compounds were called active. Not shown: some 18% with an inconclusive outcome. The list shows a part of the results.

Please review the entries below; each comes with its answer.
1. Nc1ccc(S(=O)(=O)Nc2ccnn2-c2ccccc2)cc1 :: 0.993 (inactive)
2. Cc1cn([C@H]2C[C@H](N=[N+]=[N-])[C@@H](CO)O2)c(=O)[nH]c1=O :: 1.01 (inactive)
3. O=C(O)CC(O)(CC(=O)O)C(=O)O :: 1 (inactive)
4. CCOC(=O)OC(C)OC(=O)C1N2C(=O)C(NC(=O)[C@H](N)c3ccccc3)C2SC1(C)C (some centres not stated) :: 0.998 (inactive)
5. Cc1ccc(-c2cc(C(F)(F)F)nn2-c2ccc(S(N)(=O)=O)cc2)cc1 :: 1.02 (inactive)

Now examine the next entry.
Task: Bench note: what normalized growth did COc1cc(C(=O)NCCCCCC(=O)O)cc(OC)c1OC show?
Output: 0.985 (inactive)

###

Test: chemical genetic growth profiling, strain panel (AID 1159580);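 further: tested at 20 µM; growth read once vehicle control cultures reached saturation at 30 °C; 1 = growth at the plate median or of vehicle wells; lower values mean less growth of the strain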
Conditions: S. cerevisiae deletion strains, growth OD, locus YML016C, strain PPZ1
Among all 5,500 compounds or so, about 2,000 (36%) were called active. Roughly 18% stayed inconclusive and do not appear here. Cut-off read from the data, not from the text of the source: active = normalized growth mostly below about 0.91 (no sharp cut-off); inconclusive = no clear call, values can overlap the other calls; inactive = mostly above about 0.92. The list shows a part of the results. Where a SMILES comes first, the peptide text is derived from it. The star is where a group is joined. For = O=C*
# output must be one of T (active), F (inactive)

Some entries whose results are on file:
1. CCC(C)C(=O)O[C@H]1[C@H](O)C2C(CN3CC(C)CCC3[C@@]2(C)O)C2C[C@]34O[C@]5(O)C(OC(=O)C(C)(O)CC)CC[C@@]3(C)C5C(OC(C)=O)[C@@H](OC(C)=O)C4[C@@]21O (some centres not stated) :: F
2. CC(C)(Oc1ccc(CCNC(=O)c2ccc(Cl)cc2)cc1)C(=O)O :: F
3. CC(C)(Sc1cc(C(C)(C)C)c(O)c(C(C)(C)C)c1)Sc1cc(C(C)(C)C)c(O)c(C(C)(C)C)c1 :: F
4. CCOC(=O)OC(C)OC(=O)C1N2C(=O)C(NC(=O)[C@H](N)c3ccccc3)C2SC1(C)C (some centres not stated) :: F
5. O=C1C(O)=C(O)C(=O)C(O)=C1O :: F
6. Nc1ccc(S(=O)(=O)Nc2ccnn2-c2ccccc2)cc1 :: F
7. CC1C(=O)OC2C1CCC1(C)C=CC(=O)C3(C)OC213 (configuration not stated) :: F
8. CCCOc1ccccc1-c1nc2n[nH]nc2c(=O)[nH]1 :: F
9. CC(C)=CCCC1(C)C=Cc2c(O)c3c(c(CC=C(C)C)c2O1)OC12C(=CC4CC1C(C)(C)OC2(C/C=C(\C)C(N)=O)C4=O)C3=O (configuration not stated) :: F
10. CSCCC(NC=O)C(=O)NC(Cc1ccccc1)C(=O)O (stereo not drawn) (For-Met-Phe-OH; configuration not given here) :: F

Task: Dear colleague, could you share the recorded outcome for C[C@@H]1CC[C@H]2[C@@H](C)C(=O)O[C@@H]3O[C@@]4(C)CC[C@@H]1[C@]32OO4 when you have a moment?
Output: T

Task: Dear colleague, could you share the recorded outcome for COC(=O)Nc1nc2ccc(Sc3ccccc3)cc2[nH]1 when you have a moment?
Output: F
